# Read-out: Signal transducer and activator of transcription 3 (Homo sapiens)
# assay.name: LTEA_HepaRG_STAT3: Life Technologies and Expression Analysis (LTEA) Assay for Signal transducer and activator of transcription (STAT3) using HepaRG (AID 2283529)
# recorded.conditions: mRNA level, 48 h; actives raise or lower the signal
Activity calls are given as the source filed them. How the source made its calls: active means hit-call score of the fitted dose curve at least 0.9, where 1 is the maximum; inactive means score below 0.9.
Outcomes: active, inactive

molecule	answer.label
O=S1OCC2C(CO1)C1(Cl)C(Cl)=C(Cl)C2(Cl)C1(Cl)Cl (configuration not stated)	inactive
CCCN(CCOc1c(Cl)cc(Cl)cc1Cl)C(=O)n1ccnc1	inactive
CC(C)(C)C(O)/C(=C\c1ccc(Cl)cc1Cl)n1cncn1 (configuration not stated)	inactive
CN1CSC(=S)N(C)C1	inactive
O=[N+]([O-])/N=C1\NCCN1Cc1ccc(Cl)nc1	active
CNC(=O)/C=C(\C)OP(=O)(OC)OC	inactive
CCC(C)(C)C(=O)OC1=C(c2ccc(Cl)cc2Cl)C(=O)OC12CCCCC2	inactive
CCOCN(C(=O)CCl)c1c(C)cccc1CC	inactive
O=C(O)CCCOc1ccc(Cl)cc1Cl	inactive
COc1nn(CSP(=S)(OC)OC)c(=O)s1	inactive
O=C(Nc1ccccc1)Nc1cnns1	inactive
CCCN(CCC)c1c([N+](=O)[O-])cc(C(F)(F)F)cc1[N+](=O)[O-]	inactive

Origin of measurements: PubChem BioAssay (EPA / NIEHS)
